# inhibition at 10 µM per record follows
assayed-target: hERG (KCNH2) (Homo sapiens, UniProt Q12809)
Sequence (Q12809 whole entry): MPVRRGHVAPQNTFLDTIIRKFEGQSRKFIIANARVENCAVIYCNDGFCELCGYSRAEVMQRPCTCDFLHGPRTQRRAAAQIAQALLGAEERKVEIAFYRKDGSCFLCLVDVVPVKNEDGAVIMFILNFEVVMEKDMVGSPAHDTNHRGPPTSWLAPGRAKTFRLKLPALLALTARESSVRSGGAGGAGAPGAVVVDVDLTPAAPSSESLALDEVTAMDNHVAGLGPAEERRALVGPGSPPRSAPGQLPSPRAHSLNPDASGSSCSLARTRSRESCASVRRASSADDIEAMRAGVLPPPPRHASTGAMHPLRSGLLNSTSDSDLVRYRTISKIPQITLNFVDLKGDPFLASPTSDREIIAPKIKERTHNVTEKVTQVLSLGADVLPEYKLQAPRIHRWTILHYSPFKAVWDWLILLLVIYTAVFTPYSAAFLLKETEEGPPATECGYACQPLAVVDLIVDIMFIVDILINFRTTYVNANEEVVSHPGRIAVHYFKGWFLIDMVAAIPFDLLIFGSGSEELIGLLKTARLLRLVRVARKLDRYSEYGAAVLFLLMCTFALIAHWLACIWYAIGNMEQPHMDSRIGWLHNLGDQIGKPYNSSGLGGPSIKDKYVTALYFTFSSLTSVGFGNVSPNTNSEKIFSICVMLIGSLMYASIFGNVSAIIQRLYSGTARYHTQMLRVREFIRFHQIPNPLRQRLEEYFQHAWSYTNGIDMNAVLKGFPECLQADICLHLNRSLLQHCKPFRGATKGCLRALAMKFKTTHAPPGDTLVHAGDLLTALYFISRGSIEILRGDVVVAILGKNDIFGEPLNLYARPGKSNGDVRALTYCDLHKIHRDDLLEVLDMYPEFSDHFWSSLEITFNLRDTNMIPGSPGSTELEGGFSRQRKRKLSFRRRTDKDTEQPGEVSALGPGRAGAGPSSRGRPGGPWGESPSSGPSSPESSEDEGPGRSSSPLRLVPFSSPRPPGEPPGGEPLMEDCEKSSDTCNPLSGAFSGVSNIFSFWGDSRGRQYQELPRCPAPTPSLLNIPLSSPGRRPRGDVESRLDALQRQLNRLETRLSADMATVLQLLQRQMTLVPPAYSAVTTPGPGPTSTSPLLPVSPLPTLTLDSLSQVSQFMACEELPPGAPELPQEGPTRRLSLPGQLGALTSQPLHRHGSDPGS
procedure-text: Inhibition of human ERG at 10 uM by patch-clamp assay relative to control
API: value field is a number in %; no unit string.

As a guide, the following entries are already answered.
>  <molecule>
CCN(CC)C[C@H]1[C@@H](O)[C@@]2(O)c3c(OC)cncc3O[C@@]2(c2ccc(C#N)cc2)[C@@H]1c1ccccc1

>  <inhibition at 10 µM / %>
40

$$$$
>  <molecule>
COc1cncc2c1[C@]1(O)[C@H](O)[C@H](CN(C)C)[C@@H](c3ccccc3)[C@]1(c1ccc(C#N)cc1)O2 (stereo in doubt; (+)-37)

>  <inhibition at 10 µM / %>
11

$$$$

# molecule COc1cncc2c1[C@]1(O)[C@H](O)[C@H](CCN(C)C)[C@@H](c3ccccc3)[C@]1(c1ccc(C#N)cc1)O2 (racemic) ; its inhibition at 10 µM = 11

# molecule COc1cncc2c1[C@]1(O)[C@H](O)[C@H](CN(C)C(C)(C)C)[C@@H](c3ccccc3)[C@]1(c1ccc(C#N)cc1)O2 ; its inhibition at 10 µM = 16

# molecule COc1cncc2c1[C@]1(O)[C@H](O)[C@H](CN)[C@@H](c3ccccc3)[C@]1(c1ccc(C#N)cc1)O2 (racemic) ; its inhibition at 10 µM = 11

###

procedure-text: Stability in rat liver microsomes assessed as parent compound remaining at 1 uM pre-incubated for 10 mins before NADPH addition and measured after 30 mins by LC/MS/MS analysis
Format: ADME, Microsome
test-conditions: read-out: Stability
1 (yes) if remaining at 0.5 h, 1 µM is below 70%. 0 (no) if not; exact matches included in 0 (no).

Example entries begin here.
>  <compound>
COc1cncc2c1[C@]1(O)[C@H](O)[C@H](CCN(C)C)[C@@H](c3ccccc3)[C@]1(c1ccc(C#N)cc1)O2 (racemic)

>  <class-assignment>
0 (no)

$$$$
>  <compound>
CNC[C@H]1[C@@H](O)[C@@]2(O)c3c(OC)cncc3O[C@@]2(c2ccc(C#N)cc2)[C@@H]1c1ccccc1 (racemic)

>  <class-assignment>
0 (no)

$$$$
>  <compound>
COc1cncc2c1[C@]1(O)[C@H](O)[C@H](CN(C)CC(F)F)[C@@H](c3ccccc3)[C@]1(c1ccc(C#N)cc1)O2

>  <class-assignment>
1 (yes)

$$$$
>  <compound>
COc1cncc2c1[C@]1(O)[C@H](O)[C@H](CN3CCOCC3)[C@@H](c3ccccc3)[C@]1(c1ccc(C#N)cc1)O2

>  <class-assignment>
1 (yes)

$$$$
>  <compound>
COc1cncc2c1[C@]1(O)[C@H](O)[C@H](CN(C)CC(F)(F)F)[C@@H](c3ccccc3)[C@]1(c1ccc(C#N)cc1)O2

>  <class-assignment>
1 (yes)

$$$$

Proceed to the following item.
Ask | Does the reported remaining at 0.5 h, 1 µM of the following compound sit strictly below 70%? COc1cncc2c1[C@]1(O)[C@H](O)[C@H](CN3[C@@H]4CC[C@H]3COC4)[C@@H](c3ccccc3)[C@]1(c1ccc(C#N)cc1)O2
Reply | 1 (yes)

###

procedure-text: Stability in rat liver microsomes assessed as parent compound remaining at 1 uM pre-incubated for 10 mins before NADPH addition and measured after 30 mins by LC/MS/MS analysis
Assay type: ADME, Microsome
test-conditions: read-out: Stability
# remaining at 0.5 h, 1 µM per record follows
API: value field is a number in %; no unit string.

As a guide, the following entries are already answered.
>  <compound>
COc1cncc2c1[C@]1(O)[C@H](O)[C@H](CNC(C)(C)C)[C@@H](c3ccccc3)[C@]1(c1ccc(C#N)cc1)O2

>  <number>
92

$$$$
>  <compound>
COc1cncc2c1[C@]1(O)[C@H](O)[C@H](CN(C)C)[C@@H](c3ccccc3)[C@]1(c1ccc(C#N)cc1)O2 (stereo in doubt; (+)-37)

>  <number>
72

$$$$
>  <compound>
COc1cncc2c1[C@]1(O)[C@H](O)[C@H](CN3CCC(F)(F)CC3)[C@@H](c3ccccc3)[C@]1(c1ccc(C#N)cc1)O2

>  <number>
42

$$$$

# compound COc1cncc2c1[C@]1(O)[C@H](O)[C@H](CN3CC4(COC4)C3)[C@@H](c3ccccc3)[C@]1(c1ccc(C#N)cc1)O2 ; its remaining at 0.5 h, 1 µM = 74

# compound COc1cncc2c1[C@]1(O)[C@H](O)[C@H](CN)[C@@H](c3ccccc3)[C@]1(c1ccc(C#N)cc1)O2 (racemic) ; its remaining at 0.5 h, 1 µM = 104

# compound COc1cncc2c1[C@]1(O)[C@H](O)[C@H](CN3CCCCC3)[C@@H](c3ccccc3)[C@]1(c1ccc(C#N)cc1)O2 ; its remaining at 0.5 h, 1 µM = 56

# compound CCN(CC)C[C@H]1[C@@H](O)[C@@]2(O)c3c(OC)cncc3O[C@@]2(c2ccc(C#N)cc2)[C@@H]1c1ccccc1 ; its remaining at 0.5 h, 1 µM = 76

# compound COc1cncc2c1[C@]1(O)[C@H](O)[C@H](CN(C)C(C)(C)C)[C@@H](c3ccccc3)[C@]1(c1ccc(C#N)cc1)O2 ; its remaining at 0.5 h, 1 µM = 77

###

procedure-text: Half life in monkey at 1 mg, iv administered as single dose measured after 0.083 to 24 hrs by LC-MS analysis
Type: ADME, organism-based, Macaca mulatta
test-conditions: rhesus monkey, in vivo
observation-type: half-life (h)
API: value field is a number in h; no unit string.

# molecule COc1cc2c(c(OC)n1)[C@]1(O)[C@H](O)[C@H](CN(C)C)[C@@H](c3ccccc3)[C@]1(c1ccc(C#N)cc1)O2 ; its half-life = 14.9

###

procedure-text: Half life in mouse at 1 mg, iv administered as single dose measured after 0.083 to 24 hrs by LC-MS analysis
Type: ADME, organism-based
test-conditions: in vivo
observation-type: half-life (h)
API: value field is a number in h; no unit string.

# compound COc1cc2c(c(OC)n1)[C@]1(O)[C@H](O)[C@H](CN(C)C)[C@@H](c3ccccc3)[C@]1(c1ccc(C#N)cc1)O2 ; its half-life = 10.9

###

procedure-text: Clearance in monkey at 1 mg, iv administered as single dose measured after 0.083 to 24 hrs by LC-MS analysis
Type: ADME, organism-based, Macaca mulatta
test-conditions: rhesus monkey, in vivo
observation-type: clearance (mL/min/kg)
API: value field is a number in mL/min/kg; no unit string.

# compound COc1cc2c(c(OC)n1)[C@]1(O)[C@H](O)[C@H](CN(C)C)[C@@H](c3ccccc3)[C@]1(c1ccc(C#N)cc1)O2 ; its clearance = 11.7

###

procedure-text: Volume of distribution at steady state in monkey at 1 mg, iv administered as single dose measured after 0.083 to 24 hrs by LC-MS analysis
Type: ADME, organism-based, Macaca mulatta
test-conditions: rhesus monkey, in vivo, read-out: Vdss
observation-type: Vd (L/kg)
API: value field is a number in L/kg; no unit string.

# compound COc1cc2c(c(OC)n1)[C@]1(O)[C@H](O)[C@H](CN(C)C)[C@@H](c3ccccc3)[C@]1(c1ccc(C#N)cc1)O2 ; its Vd = 12.2

###

procedure-text: Stability in human liver microsomes assessed as parent compound remaining at 1 uM pre-incubated for 10 mins before NADPH addition and measured after 30 mins by LC/MS/MS analysis
Format: ADME, Microsome
test-conditions: read-out: Stability
observation-type: remaining at 0.5 h, 1 µM

>  <molecule>
COc1cncc2c1[C@]1(O)[C@H](O)[C@H](CN(C)CC(F)(F)F)[C@@H](c3ccccc3)[C@]1(c1ccc(C#N)cc1)O2

>  <observation-type>
remaining at 0.5 h, 1 µM

>  <result>
< 1%

$$$$
>  <molecule>
COc1cncc2c1[C@]1(O)[C@H](O)[C@H](CN3[C@@H]4CC[C@H]3COC4)[C@@H](c3ccccc3)[C@]1(c1ccc(C#N)cc1)O2

>  <observation-type>
remaining at 0.5 h, 1 µM

>  <result>
51%

$$$$
>  <molecule>
CCN(CC)C[C@H]1[C@@H](O)[C@@]2(O)c3c(OC)cncc3O[C@@]2(c2ccc(C#N)cc2)[C@@H]1c1ccccc1

>  <observation-type>
remaining at 0.5 h, 1 µM

>  <result>
73%

$$$$
>  <molecule>
COc1cncc2c1[C@]1(O)[C@H](O)[C@H](CN)[C@@H](c3ccccc3)[C@]1(c1ccc(C#N)cc1)O2 (racemic)

>  <observation-type>
remaining at 0.5 h, 1 µM

>  <result>
106%

$$$$
>  <molecule>
COc1cncc2c1[C@]1(O)[C@H](O)[C@H](CCN(C)C)[C@@H](c3ccccc3)[C@]1(c1ccc(C#N)cc1)O2 (racemic)

>  <observation-type>
remaining at 0.5 h, 1 µM

>  <result>
75%

$$$$

# molecule COc1cncc2c1[C@]1(O)[C@H](O)[C@H](CN3CCCCC3)[C@@H](c3ccccc3)[C@]1(c1ccc(C#N)cc1)O2 ; its remaining at 0.5 h, 1 µM = 81%
